Values were extracted from patent US5840684A.

- Test system: Streptococcus pyogenes C203
- EXPERIMENT: broth micro-dilution MIC
- Format: cell-based
- Protocol: The MIC's were determined using a standard broth micro-dilution assay.
EXPERIMENTAL ENDPOINT: MIC

These recorded examples may help you get a feel for the data.
• CNC(CC(C)C)C(=O)NC1C(=O)NC(CC(N)=O)C(=O)NC2C(=O)NC3C(=O)NC(C(=O)NC(C(=O)O)c4cc(O)cc(O)c4-c4cc3ccc4O)C(OC3CC(C)(N)C(O)C(C)O3)c3ccc(c(Cl)c3)Oc3cc2cc(c3OC2OC(CO)C(O)C(O)C2OC2CC(C)(NCc3ccc(OCCCc4ccccc4)cc3)C(O)C(C)O2)Oc2ccc(cc2Cl)C1O (stereo not drawn) = ≤ 0.06 µg/mL
• CNC(CC(C)C)C(=O)NC1C(=O)NC(CC(N)=O)C(=O)NC2C(=O)NC3C(=O)NC(C(=O)NC(C(=O)O)c4cc(O)cc(O)c4-c4cc3ccc4O)C(OC3CC(C)(N)C(O)C(C)O3)c3ccc(c(Cl)c3)Oc3cc2cc(c3OC2OC(CO)C(O)C(O)C2OC2CC(C)(NCc3ccc(OCc4ccccc4)c(OCc4ccccc4)c3)C(O)C(C)O2)Oc2ccc(cc2Cl)C1O (stereo not drawn) = ≤ 0.06 µg/mL

Field: next compound
Item CNC(CC(C)C)C(=O)NC1C(=O)NC(CC(N)=O)C(=O)NC2C(=O)NC3C(=O)NC(C(=O)NC(C(=O)O)c4cc(O)cc(O)c4-c4cc3ccc4O)C(OC3CC(C)(N)C(O)C(C)O3)c3ccc(c(Cl)c3)Oc3cc2cc(c3OC2OC(CO)C(O)C(O)C2OC2CC(C)(NCc3ccc(-c4ccc(C(F)(F)F)cc4)cc3)C(O)C(C)O2)Oc2ccc(cc2Cl)C1O (stereo not drawn) has what recorded MIC?
≤ 0.06 µg/mL

---

Measured MIC, listed per entry.
- Tested on: Staphylococcus aureus 447
- EXPERIMENT: broth micro-dilution MIC
- Assay type: cell-based
API: value field is a number in µg/mL; no unit string.

Worked cases, MIC given:
- CCCCCC#Cc1ccc(CNC2(C)CC(OC3C(Oc4c5cc6cc4Oc4ccc(cc4Cl)C(OC4CC(C)(N)C(O)C(C)O4)C4NC(=O)C(NC(=O)C6NC(=O)C(CC(N)=O)NC(=O)C(NC(=O)C(CC(C)C)NC)C(O)c6ccc(c(Cl)c6)O5)c5ccc(O)c(c5)-c5c(O)cc(O)cc5C(C(=O)O)NC4=O)OC(CO)C(O)C3O)OC(C)C2O)cc1 (stereo not drawn) [Compound 227]: 2
- CNC(CC(C)C)C(=O)NC1C(=O)NC(CC(N)=O)C(=O)NC2C(=O)NC3C(=O)NC(C(=O)NC(C(=O)O)c4cc(O)cc(O)c4-c4cc3ccc4O)C(OC3CC(C)(N)C(O)C(C)O3)c3ccc(c(Cl)c3)Oc3cc2cc(c3OC2OC(CO)C(O)C(O)C2OC2CC(C)(NCC3CCC4CCCC43)C(O)C(C)O2)Oc2ccc(cc2Cl)C1O (stereo not drawn) [Compound 190]: 1
- CNC(CC(C)C)C(=O)NC1C(=O)NC(CC(N)=O)C(=O)NC2C(=O)NC3C(=O)NC(C(=O)NC(C(=O)O)c4cc(O)cc(O)c4-c4cc3ccc4O)C(OC3CC(C)(N)C(O)C(C)O3)c3ccc(c(Cl)c3)Oc3cc2cc(c3OC2OC(CO)C(O)C(O)C2OC2CC(C)(NCc3cccc(Oc4ccc(C(F)(F)F)cc4)c3)C(O)C(C)O2)Oc2ccc(cc2Cl)C1O (stereo not drawn) [Compound 132]: 2
- CNC(CC(C)C)C(=O)NC1C(=O)NC(CC(N)=O)C(=O)NC2C(=O)NC3C(=O)NC(C(=O)NC(C(=O)O)c4cc(O)cc(O)c4-c4cc3ccc4O)C(OC3CC(C)(N)C(O)C(C)O3)c3ccc(c(Cl)c3)Oc3cc2cc(c3OC2OC(CO)C(O)C(O)C2OC2CC(C)(NCc3ccc(S(=O)(=O)N4CCCC4)cc3)C(O)C(C)O2)Oc2ccc(cc2Cl)C1O (stereo not drawn) [Compound 174]: 4
- CNC(CC(C)C)C(=O)NC1C(=O)NC(CC(N)=O)C(=O)NC2C(=O)NC3C(=O)NC(C(=O)NC(C(=O)O)c4cc(O)cc(O)c4-c4cc3ccc4O)C(OC3CC(C)(N)C(O)C(C)O3)c3ccc(c(Cl)c3)Oc3cc2cc(c3OC2OC(CO)C(O)C(O)C2OC2CC(C)(NCc3cncc(-c4ccccc4)c3)C(O)C(C)O2)Oc2ccc(cc2Cl)C1O (stereo not drawn) [Compound 151]: 1

Consider the record given below.
MIC of CNC(CC(C)C)C(=O)NC1C(=O)NC(CC(N)=O)C(=O)NC2C(=O)NC3C(=O)NC(C(=O)NC(C(=O)O)c4cc(O)cc(O)c4-c4cc3ccc4O)C(OC3CC(C)(N)C(O)C(C)O3)c3ccc(c(Cl)c3)Oc3cc2cc(c3OC2OC(CO)C(O)C(O)C2OC2CC(C)(NCc3ccc(Oc4cccc(Cl)c4)c([N+](=O)[O-])c3)C(O)C(C)O2)Oc2ccc(cc2Cl)C1O (stereo not drawn) [Compound 87] on Staphylococcus aureus 447?
0.5

---

Entries and their measured MIC follow.
- System: Staphylococcus aureus SA1199B
- Format: cell-based
Supply the numeric figure in µg/mL, leaving out any unit text.

• CNC(CC(C)C)C(=O)NC1C(=O)NC(CC(N)=O)C(=O)NC2C(=O)NC3C(=O)NC(C(=O)NC(C(=O)O)c4cc(O)cc(O)c4-c4cc3ccc4O)C(OC3CC(C)(N)C(O)C(C)O3)c3ccc(c(Cl)c3)Oc3cc2cc(c3OC2OC(CO)C(O)C(O)C2OC2CC(C)(NCc3ccc(-c4ccc(Cl)cc4)cc3)C(O)C(C)O2)Oc2ccc(cc2Cl)C1O (centres unmarked) [Compound 229, 4-[4-chlorophenyl]benzyl-A82846B] = 1

Which MIC reading was recorded for the molecule CNC(CC(C)C)C(=O)NC1C(=O)NC(CC(N)=O)C(=O)NC2C(=O)NC3C(=O)NC(C(=O)NC(C(=O)O)c4cc(O)cc(O)c4-c4cc3ccc4O)C(OC3CC(C)(N)C(O)C(C)O3)c3ccc(c(Cl)c3)Oc3cc2cc(c3OC2OC(CO)C(O)C(O)C2OC2CC(C)(NCc3cccnc3)C(O)C(C)O2)Oc2ccc(cc2Cl)C1O (centres unmarked) ?
2

---

Catalogue of MIC values
- System: Staphylococcus aureus 447
- EXPERIMENT: broth micro-dilution MIC
- Format: cell-based

* CC(C)CC(C(=O)NC1C(=O)NC(CC(N)=O)C(=O)NC2C(=O)NC3C(=O)NC(C(=O)NC(C(=O)O)c4cc(O)cc(O)c4-c4cc3ccc4O)C(OC3CC(C)(N)C(O)C(C)O3)c3ccc(c(Cl)c3)Oc3cc2cc(c3OC2OC(CO)C(O)C(O)C2OC2CC(C)(NCc3c4c(cc5ccccc35)CCCC4)C(O)C(C)O2)Oc2ccc(cc2Cl)C1O)N(C)Cc1c2c(cc3ccccc13)CCCC2 (stereo not drawn) [Compound 262] | 1 µg/mL

Requested read-out: MIC. Entry: CC(C)CC(C(=O)NC1C(=O)NC(CC(N)=O)C(=O)NC2C(=O)NC3C(=O)NC(C(=O)NC(C(=O)O)c4cc(O)cc(O)c4-c4cc3ccc4O)C(OC3CC(C)(N)C(O)C(C)O3)c3ccc(c(Cl)c3)Oc3cc2cc(c3OC2OC(CO)C(O)C(O)C2OC2CC(C)(NCc3cccc4c3OCO4)C(O)C(C)O2)Oc2ccc(cc2Cl)C1O)N(C)Cc1cccc2c1OCO2 (stereo not drawn) [Compound 269]
4 µg/mL

# query: MIC of entry CNC(CC(C)C)C(=O)NC1C(=O)NC(CC(N)=O)C(=O)NC2C(=O)NC3C(=O)NC(C(=O)NC(C(=O)O)c4cc(O)cc(O)c4-c4cc3ccc4O)C(OC3CC(C)(N)C(O)C(C)O3)c3ccc(c(Cl)c3)Oc3cc2cc(c3OC2OC(CO)C(O)C(O)C2OC2CC(C)(NCc3ccc(NC(=O)c4cccc(F)c4)cc3)C(O)C(C)O2)Oc2ccc(cc2Cl)C1O (stereo not drawn) [Compound 194]
0.5 µg/mL

---

Recorded MIC for the following compounds
- Test system: Escherichia coli EC14
- EXPERIMENT: broth micro-dilution MIC
- Assay type: cell-based

• CNC(CC(C)C)C(=O)NC1C(=O)NC(CC(N)=O)C(=O)NC2C(=O)NC3C(=O)NC(C(=O)NC(C(=O)O)c4cc(O)cc(O)c4-c4cc3ccc4O)C(OC3CC(C)(N)C(O)C(C)O3)c3ccc(c(Cl)c3)Oc3cc2cc(c3OC2OC(CO)C(O)C(O)C2OC2CC(C)(NCc3ccc(Oc4ccccc4)cc3)C(O)C(C)O2)Oc2ccc(cc2Cl)C1O (stereo not drawn) [Compound 4, p-phenoxybenzyl·A82846B] = > 64 µg/mL
• CC(C)CC(C(=O)NC1C(=O)NC(CC(N)=O)C(=O)NC2C(=O)NC3C(=O)NC(C(=O)NC(C(=O)O)c4cc(O)cc(O)c4-c4cc3ccc4O)C(OC3CC(C)(N)C(O)C(C)O3)c3ccc(c(Cl)c3)Oc3cc2cc(c3OC2OC(CO)C(O)C(O)C2OC2CC(C)(NCc3ccc4c(c3)OCO4)C(O)C(C)O2)Oc2ccc(cc2Cl)C1O)N(C)Cc1ccc2c(c1)OCO2 (stereo not drawn) [Compound 265] = > 64 µg/mL

Attention now turns to another entry.
Looking for the measured MIC of CC(C)CC(C(=O)NC1C(=O)NC(CC(N)=O)C(=O)NC2C(=O)NC3C(=O)NC(C(=O)NC(C(=O)O)c4cc(O)cc(O)c4-c4cc3ccc4O)C(OC3CC(C)(N)C(O)C(C)O3)c3ccc(c(Cl)c3)Oc3cc2cc(c3OC2OC(CO)C(O)C(O)C2OC2CC(C)(NCc3cccnc3)C(O)C(C)O2)Oc2ccc(cc2Cl)C1O)N(C)Cc1cccnc1 (stereo not drawn) [Compound 280] , can you help?
> 64 µg/mL
